TARGET OR SYSTEM: CNK1 PH-domain (CNKSR1) (Homo sapiens, UniProt Q969H4)
Construct: The PH-domain His-fusion proteins (CNK1 and AKT1) were expressed and immobilized on a NTA chip; made in house
Sequence (Q969H4 403-502 limits assumed): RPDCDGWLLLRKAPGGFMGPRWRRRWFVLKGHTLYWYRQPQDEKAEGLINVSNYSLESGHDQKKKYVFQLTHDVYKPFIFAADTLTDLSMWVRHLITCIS
RUN DESCRIPTION: SPR binding assay (Biacore T100), CNK1 PH-domain
SETUP CONDITIONS: date 12 09 13
Mark true (1) only for Surface Plasmon Resonance CNKSR1 stability (RU max post-injection) values smaller than -0.07 RU * 100/Da; exact matches and larger values are false (0).

// below: answered molecules
[[record]]
molecule = "O=C(O)/C=C/c1cc(NS(=O)(=O)c2cccs2)c2c(c1O)OCO2"
class_label = "false (0)"

[[record]]
molecule = "CSc1c(NS(=O)(=O)c2cccs2)cc(O)c(O)c1/C=C/C(=O)O"
class_label = "false (0)"

[[record]]
molecule = "CCOC(=O)/C=C/c1c(O)c(OC)cc(N)c1SC"
class_label = "true (1)"

[[record]]
molecule = "O=C(O)CCc1cc(NS(=O)(=O)c2cccs2)c2c(c1O)OCO2"
class_label = "true (1)"

[[record]]
molecule = "Cc1ccc(-c2csc(Cn3nc(CC(O)CN)c4ccccc4c3=O)n2)cc1 (stereo not shown)"
class_label = "false (0)"


Identify whether the molecule "COc1cc(NS(=O)(=O)c2cccs2)c(SC)c(/C=C/C(=O)O)c1O" records Surface Plasmon Resonance CNKSR1 stability (RU max post-injection) below -0.07 RU * 100/Da.
false (0)

* * *

// values below are reported Surface Plasmon Resonance CNKSR1 stability (RU max post-injection)
TARGET OR SYSTEM: CNK1 PH-domain (CNKSR1) (Homo sapiens, UniProt Q969H4)
Construct: The PH-domain His-fusion proteins (CNK1 and AKT1) were expressed and immobilized on a NTA chip; made in house
RUN DESCRIPTION: SPR binding assay (Biacore T100), CNK1 PH-domain
SETUP CONDITIONS: date 11 26 13
Report the value in RU * 100/Da with no unit label.

[[record]]
structure_smiles = "CN1CC(=O)N(/C=C/c2cc(NS(=O)(=O)c3cccs3)c3c(c2O)OCO3)C1=O"
unit_label = "RU * 100/Da"
reported_measurement = 0.288


I'm curious: which Surface Plasmon Resonance CNKSR1 stability (RU max post-injection) was measured for "CCOC(=O)Cc1nn(Cc2nc(-c3ccc(C)cc3)cs2)c(=O)c2ccccc12" tested on CNK1 PH-domain (CNKSR1) (Homo sapiens, UniProt Q969H4)?
0.761

Could you do the same for "COc1cc(NS(=O)(=O)c2cccs2)c(SC)c(/C=C/N2C(=O)COC2=O)c1O" , please?
−0.123

Another compound to check: "O=C1COC(=O)N1/C=C/c1cc(NS(=O)(=O)c2cccs2)c2c(c1O)OCO2"
−0.026

* * *

TARGET OR SYSTEM: CNK1 PH-domain (CNKSR1) (Homo sapiens)
Construct: The PH-domain His-fusion proteins (CNK1 and AKT1) were expressed and immobilized on a NTA chip; made in house
RUN DESCRIPTION: SPR binding assay (Biacore T100), CNK1 PH-domain
SETUP CONDITIONS: Table 8; read-out: CNK KD
Each item that follows carries a reported Kd.
Give the value, in units of µM, as a plain number.

[[record]]
molecule = "CCOC(=O)/C=C/c1cc(NS(=O)(=O)c2cccs2)c2c(c1OC)OCO2 [Compound 86]"
reported_measurement = 123

[[record]]
molecule = "CSc1c(NS(=O)(=O)c2cccs2)cc(O)c(O)c1/C=C/C(=O)O [Compound 106]"
reported_measurement = 0.614

[[record]]
molecule = "CCOC(=O)/C=C/c1cc(NS(=O)(=O)c2cccs2)c2c(c1O)OCO2 [Compound 88]"
reported_measurement = 0.186

[[record]]
molecule = "O=C(O)/C=C/c1cc(NS(=O)(=O)c2cccs2)c2c(c1O)OCO2 [Compound 89]"
reported_measurement = 3.37

[[record]]
molecule = "CCOC(=O)/C=C/c1c(O)c(OC)cc(N)c1SC [Compound 107]"
reported_measurement = 125


Kd lookup needed for COc1cc(N)c(SC)c(/C=C/C(=O)O)c1O [Compound 108] , thanks.
72.5

COc1cc(NS(=O)(=O)c2cccs2)c(SC)c(/C=C/C(=O)O)c1O [Compound 104] ?
1.56

Similarly, CCOC(=O)/C=C/c1c(O)c(O)cc(NS(=O)(=O)c2cccs2)c1SC [Compound 105] ?
2.86

Query CCOC(=O)/C=C/c1c(O)c(O)cc(N)c1SC [Compound 109] next
19.2

And then CCOC(=O)/C=C/c1c(O)c(OC)cc(NS(=O)(=O)c2cccs2)c1SC [Compound 103] , what is it?
0.157
